Assay: Cycloheximide Counterscreen for Small Molecule Inhibitors of Shiga Toxin; further: read at 38.3 µM for the half of the compounds with a filed dose; 0% is about no effect
Conditions: cell reporter, cycloheximide protein synthesis inhibition counterscreen; stronger effect = higher value
In all, about 300,000 compounds went through this assay and about 37,000 (12%) were called active. The sample as a whole holds a higher share of actives than the screen did.
endpoint.label: max response (%)
Only the number, expressed in %, is required.

1. O=C(c1ccncc1)N1CCN(c2ccc3ccccc3n2)CC1 | 8.94

Incoming: Recorded max response for "c1cnc(N2CCN(c3ccc4ccccc4n3)CC2)nc1" , please?
Outgoing: 53

Incoming: Recorded max response for "COc1cc2c(cc1OC)CN(C(=O)c1cc(S(=O)(=O)N3CCCCC3)ccc1Cl)CC2" , please?
Outgoing: 11.1

Incoming: Recorded max response for Cc1ccc2c(c1)C(c1ccccc1)N(C(=O)c1ccc(S(=O)(=O)N3CCOCC3)cc1)CC(=O)N2 (stereo unspecified) , please?
Outgoing: -1.59

Incoming: Recorded max response for CCC(C(=O)OC)n1cnc2scc(-c3ccc(C)cc3)c2c1=O (stereo unspecified) , please?
Outgoing: 0.506

Incoming: Recorded max response for "Oc1ccc(CN2CCN(c3ncccn3)CC2)cc1" , please?
Outgoing: -3.1

Just for reference, PubChem BioAssay AID2314 is where these values come from.
